Collected IC50 values appear next to each entry.
# Experimental System: GDP-loaded WT KRAS (Homo sapiens, UniProt P01116)
# Sequence (P01116 1-188 isoform P01116-2): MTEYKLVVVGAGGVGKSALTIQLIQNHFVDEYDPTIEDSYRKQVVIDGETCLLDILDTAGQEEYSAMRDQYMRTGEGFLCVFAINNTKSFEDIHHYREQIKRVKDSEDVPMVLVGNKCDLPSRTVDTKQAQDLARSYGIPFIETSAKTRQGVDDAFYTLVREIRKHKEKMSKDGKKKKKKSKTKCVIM
# Assay Details: KRAS WT Probe Displacement Assay
# Assay type: binding
# Run Parameters: WT KRAS 3 nM, biotinylated probe 1 60 nM; read-out: KRAS WT Probe Displacement Assay IC50
Unit nM implied. Number only.

Compound	Experimental System	Measure Unit	IC50
CNC1C[C@H]2CC[C@@H]1N2c1nc(OC[C@@H]2C[C@@H](F)CN2C)nc2c(F)c(-c3ccc(F)c4sc(N)nc34)c(Cl)cc12 (stereo partly drawn) [Example E59]	GDP-loaded WT KRAS (Homo sapiens, UniProt P01116)	nM	390
Nc1nc2c(-c3c(Cl)cc4c(N5CC6CCC(C5)N6)nc(OC[C@@]56CCCN5C[C@H](F)C6)nc4c3Cl)ccc(F)c2s1 [Example E63]	GDP-loaded WT KRAS (Homo sapiens, UniProt P01116)	nM	8.5

INPUT: Any idea what its IC50 is? The compound is CN(C)CC1(COc2nc(N3CC4CCC(C3)N4)c3cc(Cl)c(-c4ccc(F)c5sc(N)nc45)c(F)c3n2)CC1 [Example E70]
OUTPUT: 32
